Recorded measurements of Activity, one per entry
Experiment: Toxicity in ip dosed mouse assessed as blood urea nitrogen level in plasma administered on day 2,4,6,8 and 10 (reference value: 7.4 +/ -0.6 mmol/L)
Assay type: organism-based
Conditions: in vivo, 240 h, time 10 day
RECORDED ENDPOINT: Activity (mmol/L)

                                   compound  recorded_endpoint  result_units  experimental_result
0    COC(=O)c1ccc(C(=O)NCC(=O)Nc2ccncc2)cc1           Activity        mmol/L                  6.6
1  CC1CCN(C(=O)c2ccc(C(=O)NC(C)C(=O)Nc3ccncc3)cc2)CC1 (configuration not stated)           Activity        mmol/L                  6.1

----------
System: Pichia kudriavzevii
Assay: Antifungal activity against Candida krusei ATCC 6258 assessed as reduction in fungal growth
Type: functional
RECORDED ENDPOINT: MIC (µg/mL)

>>> df
                                   compound  result_units  experimental_result
0  CCC(C)C(NC(=O)c1ccc(C(=O)OC)cc1)C(=O)Nc1ccncc1 (stereo not given)         µg/mL                    2
1    COC(=O)c1ccc(C(=O)NCC(=O)Nc2ccncc2)cc1         µg/mL                  0.5
2  CC1CCN(C(=O)/C=C/c2ccc(C(=O)NCC(=O)Nc3ccncc3)cc2)CC1         µg/mL                    2
3        OC(Cn1cncn1)(Cn1cncn1)c1ccc(F)cc1F         µg/mL                  0.5
4  CC1CCN(C(=O)c2ccc(C(=O)NCC(=O)Nc3ccncc3)cc2)CC1         µg/mL                  0.5
5  CC1CCN(C(=O)c2ccc(C(=O)NC(C)C(=O)Nc3ccncc3)cc2)CC1 (stereo not given)         µg/mL                    1
6  CCC(C)C(NC(=O)c1ccc(C(=O)N2CCC(C)CC2)cc1)C(=O)Nc1ccncc1 (stereo not given)         µg/mL                    1
7  COC(=O)c1ccc(C(=O)NC(C)C(=O)Nc2ccncc2)cc1 (stereo not given)         µg/mL                    1
8  CCC(C)C(NC(=O)c1ccc(/C=C/C(=O)N2CCC(C)CC2)cc1)C(=O)Nc1ccncc1 (stereo not given)         µg/mL                    1
9  CC1CCN(C(=O)/C=C/c2ccc(C(=O)NC(C)C(=O)Nc3ccncc3)cc2)CC1 (stereo not given)         µg/mL                    4

----------
Recorded measurements of MIC, one per entry
System: Nakaseomyces glabratus
Test: Antifungal activity against Candida glabrata ATCC 0001 assessed as reduction in fungal growth
Type: functional
RECORDED ENDPOINT: MIC

>>> print(df.to_string())
                                   compound         target_of_assay  experimental_result
0  CCC(C)C(NC(=O)c1ccc(C(=O)N2CCC(C)CC2)cc1)C(=O)Nc1ccncc1 (stereo not given)  Nakaseomyces glabratus              2 µg/mL
1  CCC(C)C(NC(=O)c1ccc(/C=C/C(=O)N2CCC(C)CC2)cc1)C(=O)Nc1ccncc1 (stereo not given)  Nakaseomyces glabratus              2 µg/mL
2  CC1CCN(C(=O)c2ccc(C(=O)NCC(=O)Nc3ccncc3)cc2)CC1  Nakaseomyces glabratus              2 µg/mL
3  CC1CCN(C(=O)/C=C/c2ccc(C(=O)NCC(=O)Nc3ccncc3)cc2)CC1  Nakaseomyces glabratus              1 µg/mL
4        OC(Cn1cncn1)(Cn1cncn1)c1ccc(F)cc1F  Nakaseomyces glabratus            0.5 µg/mL
5  CC1CCN(C(=O)c2ccc(C(=O)NC(C)C(=O)Nc3ccncc3)cc2)CC1 (stereo not given)  Nakaseomyces glabratus            0.5 µg/mL
6  CC1CCN(C(=O)/C=C/c2ccc(C(=O)NC(C)C(=O)Nc3ccncc3)cc2)CC1 (stereo not given)  Nakaseomyces glabratus              4 µg/mL
7  COC(=O)c1ccc(C(=O)NC(C)C(=O)Nc2ccncc2)cc1 (stereo not given)  Nakaseomyces glabratus              2 µg/mL
8  CCC(C)C(NC(=O)c1ccc(C(=O)OC)cc1)C(=O)Nc1ccncc1 (stereo not given)  Nakaseomyces glabratus              4 µg/mL
9    COC(=O)c1ccc(C(=O)NCC(=O)Nc2ccncc2)cc1  Nakaseomyces glabratus              1 µg/mL

----------
Test system: Candida albicans
Assay: Antifungal activity against Candida albicans 901 assessed as reduction in fungal growth
Format: functional
RECORDED ENDPOINT: MIC (µg/mL)

In [3]: df
Out[3]:
                                   molecule  value_relation_sign  experimental_result
0  CC1CCN(C(=O)c2ccc(C(=O)NC(C)C(=O)Nc3ccncc3)cc2)CC1 (stereo not given)                    =                    2
1  CCC(C)C(NC(=O)c1ccc(/C=C/C(=O)N2CCC(C)CC2)cc1)C(=O)Nc1ccncc1 (stereo not given)                    =                    8
2  CC1CCN(C(=O)/C=C/c2ccc(C(=O)NC(C)C(=O)Nc3ccncc3)cc2)CC1 (stereo not given)                    =                    4
3    COC(=O)c1ccc(C(=O)NCC(=O)Nc2ccncc2)cc1                    =                    2
4  CC1CCN(C(=O)c2ccc(C(=O)NCC(=O)Nc3ccncc3)cc2)CC1                    =                    4
5  CC1CCN(C(=O)/C=C/c2ccc(C(=O)NCC(=O)Nc3ccncc3)cc2)CC1                    =                    4
6  COC(=O)c1ccc(C(=O)NC(C)C(=O)Nc2ccncc2)cc1 (stereo not given)                    =                    1
7        OC(Cn1cncn1)(Cn1cncn1)c1ccc(F)cc1F                    >                   16
8  CCC(C)C(NC(=O)c1ccc(C(=O)OC)cc1)C(=O)Nc1ccncc1 (stereo not given)                    =                    4
9  CCC(C)C(NC(=O)c1ccc(C(=O)N2CCC(C)CC2)cc1)C(=O)Nc1ccncc1 (stereo not given)                    =                    8

// provenance: ChEMBL document CHEMBL5352395
